- Experimental target: DCN1 (DCUND1) protein PONY domain (Homo sapiens (Human))
- Sequence (Q96GG9 60-248): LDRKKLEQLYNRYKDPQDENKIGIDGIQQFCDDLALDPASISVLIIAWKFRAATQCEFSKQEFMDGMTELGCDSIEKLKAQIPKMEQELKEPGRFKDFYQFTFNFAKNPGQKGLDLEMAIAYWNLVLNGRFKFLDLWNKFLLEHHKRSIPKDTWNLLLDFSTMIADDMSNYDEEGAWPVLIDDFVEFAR
- Measurement description: TR-FRET assay, DCN1 binding with FAM-labeled probe
- Assay context: 24 hr after treatment with compound; read-out: TR FRET IC50 24 hr
- Method: A TR-FRET assay was performed to evaluate the ability of the compounds to bind the DCN-1 protein. The TR-FRET assay was designed following the Scott et al. protocol (Scott et al., Nat Chem Biol. 2017 August; 13(8): 850-857. Doi:10.1038/nchembio.2386). […] The TR-FRET ratio between Tb-DCN1 and the FAM-labeled probe was measured in a 384-well opti-plate (Perkin Elmer) using a plate reader (BMG) at 1, 5, and 24 hrs after treatment with compound (final DMSO concentration of 0.1%).
Measurement label: IC50

1. CCN1C(=O)[C@@H](NC(=O)c2cccc(C(F)(F)F)c2)[C@@H](c2ccc(F)cc2)c2c(C(=O)N3CC[C@@H](C#N)C3)nn(-c3ccccc3)c21 (mixture of isomers) [Compound I-60] : 200 to 1000 nM
2. CCN1C(=O)[C@@](C)(NC(=O)c2cccc(C(F)(F)F)c2)[C@@H](c2ccc(F)cc2)c2c([C@@H](C)NC#N)nn(-c3ccccc3)c21 [Compound I-539] : ≤ 200 nM
3. CCN1C(=O)[C@@H](NC(=O)CC2=C(C)Cc3ccc(F)cc32)[C@@H](C2CC2)c2c(C(=O)N3[C@H](C#N)C[C@H]4C[C@H]43)nn(C3CCOCC3)c21 [Compound I-504] : 1000 to 3000 nM
4. CCN1C(=O)[C@H](NC(=O)c2cccc(C(F)(F)F)c2)[C@H](c2ccc(F)cn2)c2c([C@@H](C)NC#N)nn(-c3ccccc3)c21 [Compound I-525] : 1000 to 3000 nM
5. CCN1C(=O)[C@@H](NC(=O)c2cccc(C(F)(F)F)c2)[C@@H](c2ccc(F)cc2)c2c(CN(C)C/C=C/C(=O)N3CCCC3)nn(-c3ccccc3)c21 [Compound I-606] : 200 to 1000 nM

Values compiled from patent US20250163057A1.
